# Test system: GM3
# method: GM3 Elisa assay
# Format: cell-based
# setup_conditions: Table 3 (IC 50 Values); B16-FO cells; read-out: IC50_uM_Mean
pIC50: −log10 of the molar value.
value_type: pIC50

Past entries and their recorded results:
COc1ccc(C(=O)CCCCCC(=O)N[C@H](CN2CCC(F)CC2)[C@H](O)c2ccc3c(c2)OCCO3)cc1; 6.00 to 7.00
COc1ccc(C(=O)CCCCCC(=O)N[C@H](CNC(C)C)C(O)c2ccc3c(c2)OCCO3)cc1 (some centres unmarked); 6.00 to 7.00
COc1ccc(OCCC(=O)N[C@H](CN2CC3CC3C2)[C@H](O)c2ccc3c(c2)OCCO3)cc1 (some centres unmarked); 6.00 to 7.00
CC(C)Oc1ccc([C@@H](O)[C@@H](CN2CC[C@@H](F)C2)NC(=O)Cc2ccc(-c3ccc(Cl)cc3)cc2)cc1; ≥ 7.00

Task: Which pIC50 value belongs to COc1ccc(C(=O)CCCCC(=O)N(Cc2ccc(OC(F)F)cc2)[C@H](CN2CCCC2)[C@H](O)c2ccc(O)cc2)cc1 ?
Output: 5.00 to 5.52

Task: Proceed to COc1ccc(C(=O)CCCCC(=O)N[C@H](CN2CCCC2)[C@H](O)c2ccc(C)c(F)c2)cc1
Output: 6.00 to 7.00

Task: Proceed to CCCCCCCC(=O)N[C@@H](CN1CCCC1)[C@H](O)c1ccc2c(c1)OCCO2
Output: 5.00 to 5.52
